Biological target: T1, his-tagged human PVRIG (h-PVRIG-his) recombinant protein (human, UniProt Q6DKI7 41-171, limits assumed)
T1 construct: bought from Acrobiosystems; also called Human PVRIG-his; human PVRIG recombinant protein; not shown: his tag
T1 sequence (looked up): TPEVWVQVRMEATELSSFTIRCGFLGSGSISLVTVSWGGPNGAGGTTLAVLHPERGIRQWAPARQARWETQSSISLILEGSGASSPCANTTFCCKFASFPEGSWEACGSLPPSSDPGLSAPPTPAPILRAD
Assay: BLI (Fortebio), antibody on Protein A sensor, 1:1 fit
Reported Kd values for the following binders.
Please respond with the number in pM and leave the unit unwritten.

Answered examples (3):
# binder, measurement_units, value_reported
measured = [
    ("humanized anti-PVRIG antibody 151H7 (antibody, human IgG4 S228P, F234A L235A, V domains shown) VH: HVQLVESGGGLVQPGGSLRLSCVASASGFTYRPYCMAWFRQAPGKEREAVAGIDIFGGTTYADSVKGRFTASRDNAGFSLYLQMNSLRAEDTAVYYCAAGDSPDGRCPPLGQGLNYWGQGTMVTVSS", "pM", 1200),
    ("humanized anti-PVRIG antibody 39H1 (antibody, human IgG4 S228P, F234A L235A, V domains shown) VH: EVQLVESGGGLVQPGGSLRLSCAASGFTFSTDCMGWFRQAPGKGLEGVAHIDSDGIPRYVESVKGRFTISRDNAKNSLYLQMNSLRAEDTAVYYCVVGFKFGDYCAPNDWGQGTMVTVSS", "pM", 3280),
    ("humanized anti-PVRIG antibody 20H5 (antibody, human IgG4 S228P, F234A L235A, V domains shown) VH: EVQLVESGGGLVQPGGSLRLSCAASGYTSRTDCMGWFRQAPGKEHEGVAHIDSDGIPRYVDSVKGRFTISQDHAKNSLYLQMNSLRAEDTAVYYCVVGFKFDEDYCAPNDWGQGTMVTVSS", "pM", 69.8),
]

Request: Identify measured Kd associated with humanized anti-PVRIG antibody 39H2 (antibody, human IgG4 S228P, F234A L235A, V domains shown) VH: EVQLVESGGGLVQPGGSLRLSCAASGFTSRTDCMGWFRQAPGKGLEGVAHIDSDGIPRYVESVKGRFTISRDNAKNSLYLQMNSLRAEDTAVYYCVVGFKFGDYCAPNDWGQGTMVTVSS
Result: 692

The measured values listed here are drawn from patent US20240376207A1.
